- Tested on: SK-MEL-28
- Assay Procedure: Cytotoxicity against human SK-MEL-28 cells assessed as growth inhibition at 10 uM after 48 hrs by coulter counter analysis
- Type: functional
- Experimental Setup: SK-MEL-28, 48 h, read-out: GI
Property Label: inhibition of growth at 10 µM (%)
Please respond with the number in % and leave the unit unwritten.

Reported inhibition of growth at 10 µM for CC(=O)c1ccc(NC(=O)CSc2nc3ccccc3c(=O)n2CCc2ccccc2)cc1 : what is it?
23

State the recorded inhibition of growth at 10 µM for this entry: O=C(CSc1nc2ccccc2c(=O)n1CCc1ccccc1)NCc1ccccc1
12

So what's the measured inhibition of growth at 10 µM for this one? COc1cc(NC(=O)CSc2nc3ccccc3c(=O)n2CCc2ccccc2)cc(OC)c1OC
63

###

Kindly supply the reported inhibition of growth at 10 µM values for the records listed here.
- Test system: MDA-MB-231
- Assay Procedure: Cytotoxicity against human MDA-MB-231 cells assessed as growth inhibition at 10 uM after 48 hrs by coulter counter analysis
- Format: functional
- Experimental Setup: MDA-MB-231, 48 h, read-out: GI
API: value field is a number in %; no unit string.

Reported inhibition of growth at 10 µM for CCOc1ccc(NC(=O)CSc2nc3ccccc3c(=O)n2CCc2ccccc2)cc1 : what is it?
25

What measured inhibition of growth at 10 µM goes with Cc1ccc(NC(=O)CSc2nc3ccccc3c(=O)n2CCc2ccccc2)cc1 ?
23

Need inhibition of growth at 10 µM, item CC(=O)c1ccc(NC(=O)CSc2nc3ccccc3c(=O)n2CCc2ccccc2)cc1
39

// query inhibition of growth at 10 µM value for entry O=C(CSc1nc2ccccc2c(=O)n1CCc1ccccc1)Oc1ccccc1
15

Looking for the measured inhibition of growth at 10 µM of COc1cc(OC(=O)CSc2nc3ccccc3c(=O)n2CCc2ccccc2)cc(OC)c1OC , can you help?
20

For the compound O=C(CSc1nc2ccccc2c(=O)n1CCc1ccccc1)Nc1ccc(F)cc1 , what inhibition of growth at 10 µM is on record?
22

Data request, read-out inhibition of growth at 10 µM, for COc1cc(NC(=O)CCSc2nc3ccccc3c(=O)n2CCc2ccccc2)cc(OC)c1OC
66

###

- Test system: Malme-3M
- Assay Procedure: Cytotoxicity against human MALME-3M cells assessed as growth inhibition at 10 uM after 48 hrs by coulter counter analysis
- Type: functional
- Experimental Setup: read-out: GI
Property Label: inhibition of growth at 10 µM (%)
Enter your answer as a number in %; do not include the unit.

Which measured inhibition of growth at 10 µM value corresponds to O=C(CSc1nc2ccccc2c(=O)n1CCc1ccccc1)Nc1ccc(F)cc1 ?
11

Tell me the measured inhibition of growth at 10 µM of COc1ccc(NC(=O)CSc2nc3ccccc3c(=O)n2CCc2ccccc2)cc1 , please.
40

# inhibition of growth at 10 µM lookup, item CC(=O)c1ccc(NC(=O)CSc2nc3ccccc3c(=O)n2CCc2ccccc2)cc1
13

Data request, read-out inhibition of growth at 10 µM, for Cc1ccc(NC(=O)CSc2nc3ccccc3c(=O)n2CCc2ccccc2)cc1
17

Fill blank: measured inhibition of growth at 10 µM of the compound O=C(CSc1nc2ccccc2c(=O)n1CCc1ccccc1)Oc1ccccc1 is ____.
16

###

- Test system: SF-268
- Assay Procedure: Cytotoxicity against human SF268 cells assessed as growth inhibition at 10 uM after 48 hrs by coulter counter analysis
- Assay type: functional
- Experimental Setup: SF-268, 48 h, read-out: GI
Parameter threshold = 30%. Response is 1 (yes) when inhibition of growth at 10 µM meets or exceeds it, else 0 (no).

Answer whether inhibition of growth at 10 µM of CCOC(=O)c1ccc(NC(=O)CSc2nc3ccccc3c(=O)n2CCc2ccccc2)cc1 is greater than or equal to 30%.
1 (yes)

Record CCOc1ccc(NC(=O)CSc2nc3ccccc3c(=O)n2CCc2ccccc2)cc1 ; criterion: inhibition of growth at 10 µM no lower than 30%. Met?
0 (no)

// inclusive: inhibition of growth at 10 µM at least 30%? input: O=C(CSc1nc2ccccc2c(=O)n1CCc1ccccc1)Nc1cc(Cl)ccc1C(=O)O
0 (no)

Please tell me: is the compound COc1cc(OC(=O)CSc2nc3ccccc3c(=O)n2CCc2ccccc2)cc(OC)c1OC at or over 30% in terms of inhibition of growth at 10 µM?
0 (no)

For this compound, is measured inhibition of growth at 10 µM 30% or higher? O=C(CSc1nc2ccccc2c(=O)n1CCc1ccccc1)Oc1ccc(Cl)cc1
0 (no)

Is it the case that O=C(CSc1nc2ccccc2c(=O)n1CCc1ccccc1)Nc1ccc(Cl)cc1 has inhibition of growth at 10 µM reaching or exceeding 30%?
1 (yes)

Please indicate if the recorded inhibition of growth at 10 µM for COc1cc(NC(=O)CCSc2nc3ccccc3c(=O)n2CCc2ccccc2)cc(OC)c1OC meets or exceeds 30%.
0 (no)

Quick check: does O=C(CSc1nc2ccccc2c(=O)n1CCc1ccccc1)Nc1ccccc1 have inhibition of growth at 10 µM greater than or equal to 30%?
0 (no)

Kindly determine if inhibition of growth at 10 µM recorded for COc1ccc(NC(=O)CSc2nc3ccccc3c(=O)n2CCc2ccccc2)cc1 is above or exactly 30%.
1 (yes)

Textbook exercise: given the entry Cc1ccc(NC(=O)CSc2nc3ccccc3c(=O)n2CCc2ccccc2)cc1 , state whether its inhibition of growth at 10 µM is greater than or equal to 30%.
0 (no)

###

- Test system: U-251
- Assay Procedure: Cytotoxicity against human U251 cells assessed as growth inhibition at 10 uM after 48 hrs by coulter counter analysis
- Format: functional
- Experimental Setup: U-251, 48 h, read-out: GI
Property Label: inhibition of growth at 10 µM (%)
Report the figure in % without appending any unit label.

Look up inhibition of growth at 10 µM: CCOC(=O)c1ccc(NC(=O)CSc2nc3ccccc3c(=O)n2CCc2ccccc2)cc1
28

Please give the measured inhibition of growth at 10 µM for this molecule: O=C(CSc1nc2ccccc2c(=O)n1CCc1ccccc1)Nc1ccc(Cl)cc1
25

###

- Test system: UO-31
- Assay Procedure: Cytotoxicity against human UO31 cells assessed as growth inhibition at 10 uM after 48 hrs by coulter counter analysis
- Assay type: functional
- Experimental Setup: UO-31, 48 h, read-out: GI
Assign inhibition of growth at 10 µM to each entry below.
Reply with just the number (in %).

I have this compound here, COc1cc(NC(=O)CCSc2nc3ccccc3c(=O)n2CCc2ccccc2)cc(OC)c1OC , and I need its recorded inhibition of growth at 10 µM.
22

Requested read-out: inhibition of growth at 10 µM. Entry: O=C(CSc1nc2ccccc2c(=O)n1CCc1ccccc1)NCc1ccccc1
33

// inhibition of growth at 10 µM lookup, key: O=C(CSc1nc2ccccc2c(=O)n1CCc1ccccc1)Nc1cc(Cl)ccc1C(=O)O
18

Entry CCOc1ccc(NC(=O)CSc2nc3ccccc3c(=O)n2CCc2ccccc2)cc1 has what inhibition of growth at 10 µM?
26

Name the recorded inhibition of growth at 10 µM for COc1cc(OC(=O)CSc2nc3ccccc3c(=O)n2CCc2ccccc2)cc(OC)c1OC .
37

State the recorded inhibition of growth at 10 µM for this entry: CCOC(=O)c1ccc(NC(=O)CSc2nc3ccccc3c(=O)n2CCc2ccccc2)cc1
10

Field request: inhibition of growth at 10 µM | item: O=C(CSc1nc2ccccc2c(=O)n1CCc1ccccc1)Nc1ccc(Cl)cc1
28

Could you share which inhibition of growth at 10 µM value was measured for O=C(CSc1nc2ccccc2c(=O)n1CCc1ccccc1)Oc1ccccc1 ?
16

Given the entry O=C(CSc1nc2ccccc2c(=O)n1CCc1ccccc1)Nc1ccc(F)cc1 , report its measured inhibition of growth at 10 µM.
31

Given the entry CC(=O)c1ccc(NC(=O)CSc2nc3ccccc3c(=O)n2CCc2ccccc2)cc1 , report its measured inhibition of growth at 10 µM.
10

###

- Test system: SK-MEL-5
- Assay Procedure: Cytotoxicity against human SK-MEL-5 cells assessed as growth inhibition at 10 uM after 48 hrs by coulter counter analysis
- Assay type: functional
- Experimental Setup: SK-MEL-5, 48 h, read-out: GI
Please go through the items and note down their inhibition of growth at 10 µM.
Numeric only. Scale: %

Form field - read-out: inhibition of growth at 10 µM; system: SK-MEL-5; submitted item: O=C(CSc1nc2ccccc2c(=O)n1CCc1ccccc1)Nc1ccc(F)cc1
16

Request - read-out inhibition of growth at 10 µM | tested on SK-MEL-5 | compound CCOC(=O)c1ccc(NC(=O)CSc2nc3ccccc3c(=O)n2CCc2ccccc2)cc1
21

What is its inhibition of growth at 10 µM for SK-MEL-5? Entry: O=C(CSc1nc2ccccc2c(=O)n1CCc1ccccc1)Nc1ccccc1
13

Form: Entry = COc1cc(NC(=O)CCSc2nc3ccccc3c(=O)n2CCc2ccccc2)cc(OC)c1OC | System = SK-MEL-5 | inhibition of growth at 10 µM = ____
31

Numbers sourced from ChEMBL document CHEMBL2396621.
